System: c-Abl (mouse)
TEST: phosphorylation enrichment, bacterial display (enrichment ratio); higher = better substrate or ligand; peptides without Tyr show the background;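 note: 11-residue human phosphosite peptides and single-mutation variants displayed on the E. coli surface, counted by deep sequencing, each peptide's frequency after selection divided by its frequency in the unselected input library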;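 note: frequency after pTyr selection over input frequency; kinase dosed for 20-30% of maximal phosphorylation in three min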
MEASURED_ATTRIBUTE: phosphorylation enrichment
When you answer, write just the number.

*Q* Report phosphorylation enrichment for GFFDLYGGEKF [PTPN11_Y66_D61G_YF] please.
*A* 0.767

----------
ASSAYED_TARGET: FGFR3 (UniProt P22607)
Sequence (P22607 whole entry, looked up): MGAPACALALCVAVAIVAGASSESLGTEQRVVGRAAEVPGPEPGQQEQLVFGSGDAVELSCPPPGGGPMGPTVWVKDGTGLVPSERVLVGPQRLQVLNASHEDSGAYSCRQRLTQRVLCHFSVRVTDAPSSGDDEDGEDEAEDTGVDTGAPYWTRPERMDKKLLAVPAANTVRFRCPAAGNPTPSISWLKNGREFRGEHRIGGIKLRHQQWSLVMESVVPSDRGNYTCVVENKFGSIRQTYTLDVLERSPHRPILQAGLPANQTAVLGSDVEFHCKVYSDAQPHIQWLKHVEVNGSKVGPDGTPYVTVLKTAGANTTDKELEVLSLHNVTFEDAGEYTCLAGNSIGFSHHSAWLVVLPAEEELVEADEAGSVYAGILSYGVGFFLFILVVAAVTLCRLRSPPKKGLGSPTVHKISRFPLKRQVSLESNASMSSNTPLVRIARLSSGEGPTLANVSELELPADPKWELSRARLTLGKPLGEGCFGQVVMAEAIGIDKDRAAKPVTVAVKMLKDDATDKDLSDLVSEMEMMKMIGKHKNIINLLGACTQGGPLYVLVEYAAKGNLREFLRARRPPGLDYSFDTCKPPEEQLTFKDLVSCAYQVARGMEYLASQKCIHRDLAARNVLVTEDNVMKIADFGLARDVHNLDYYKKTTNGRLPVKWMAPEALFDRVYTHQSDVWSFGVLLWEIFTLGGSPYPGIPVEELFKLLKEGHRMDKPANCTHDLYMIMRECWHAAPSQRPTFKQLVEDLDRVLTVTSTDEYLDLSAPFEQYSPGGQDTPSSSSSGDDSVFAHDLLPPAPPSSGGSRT
TEST: phosphorylation enrichment, bacterial display (enrichment ratio); higher = better substrate or ligand; peptides without Tyr show the background
MEASURED_ATTRIBUTE: phosphorylation enrichment
Please reply with the value in numeric form only.

HEKFLYFLPAS [DYNC2H1_Y346] : 1.82
GIVEEYQLPFF [BMPR1A_Y453_YF] : 0.822
TACNPYKPPGP : 0.437
AVARPYHIQKW [ACSBG1_Y677_A673V] : 0.506

Okay, now this sequence:
*Q* Returns the measured phosphorylation enrichment for the input sequence. Input: CSGNCYLDIRP [FBN1_Y1535_R1530C]
*A* 0.532
